experiment: Oral bioavailability in fasted mouse at 10 mg/kg by LC-MS/MS analysis; format: ADME, organism-based; details: in vivo
Assay Readout: bioavailability (%)
Report as a plain number; the unit % is understood.

Exercise: Could you share which bioavailability value was measured for `CCC(CC)O[C@@H]1C=C(C(=O)O)C[C@H](NC(=N)N)[C@H]1NC(C)=O` ?
Solution: 48

----------
molecular target: albumin (Homo sapiens, UniProt P02768); assay: Binding affinity to albumin (unknown origin) at 10 to 50 uM after 10 mins by HPLC analysis; format: ADME; settings: read-out: PPB (converted)
Sequence (P02768 whole entry): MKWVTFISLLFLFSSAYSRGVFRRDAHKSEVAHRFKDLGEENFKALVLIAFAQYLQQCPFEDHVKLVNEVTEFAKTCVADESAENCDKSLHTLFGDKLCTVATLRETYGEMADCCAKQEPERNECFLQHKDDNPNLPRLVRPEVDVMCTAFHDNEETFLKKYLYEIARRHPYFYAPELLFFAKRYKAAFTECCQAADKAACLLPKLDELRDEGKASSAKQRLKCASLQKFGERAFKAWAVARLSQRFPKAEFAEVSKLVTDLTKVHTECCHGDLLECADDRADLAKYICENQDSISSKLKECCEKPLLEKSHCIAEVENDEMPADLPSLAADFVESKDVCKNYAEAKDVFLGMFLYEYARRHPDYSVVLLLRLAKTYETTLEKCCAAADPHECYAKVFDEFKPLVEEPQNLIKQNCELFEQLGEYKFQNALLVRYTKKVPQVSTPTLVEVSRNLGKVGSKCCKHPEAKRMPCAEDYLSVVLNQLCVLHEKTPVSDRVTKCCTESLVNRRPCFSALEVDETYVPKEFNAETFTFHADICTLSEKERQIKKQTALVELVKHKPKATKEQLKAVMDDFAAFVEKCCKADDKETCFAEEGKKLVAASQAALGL
Assay Readout: fraction unbound at 10 min, up to 50 µM
Please give the numeric answer without any surrounding text.

Exercise: I would be grateful if you could share the reported fraction unbound at 10 min, up to 50 µM for `CCC(CC)O[C@@H]1C=C(C(=O)O)C[C@H](NC(=N)N)[C@H]1NC(C)=O` .
Solution: 0.996

Exercise: Fill blank: measured fraction unbound at 10 min, up to 50 µM of the compound `CCOC(=O)C1=C[C@@H](OC(CC)CC)[C@H](NC(C)=O)[C@@H](NC(=N)N)C1` is ____.
Solution: 0.699

Exercise: Give the measured fraction unbound at 10 min, up to 50 µM of `CCOC(=O)C1=C[C@@H](OC(CC)CC)[C@H](NC(C)=O)[C@@H](N/C(C)=N/O)C1` .
Solution: 0.733
